Provenance of the data: patent US20110053865A1

biological target: T1, cynomolgus IL-23 (cynomolgus); test: SPR Biacore, cyno IL-23 on chip
T1 construct: also called cyno IL-23; cIL-23
measured.property: koff (s⁻¹)

(1) P23IL 84G12 (VHH, also called P23ILp40-PMP84G12) VHH: EVQLVESGGRLVQAGGSLRLSCAASGRTFDSNPMGWFRQAPGKKREFVAIISGNGGITNYANSVKGRFTISRDNAKNTIYLQMNSLKPEDTAVYYCAASGLYGSGSVYDLMYDYWGQGTQVTVSS
(2) P23IL-23H3 (VHH, p40+ Nanobody) VHH: EVQLVESGGGLVQAGDSLRLSCAASGRSFSNDAMGWFRQAPGKERSFVAAINWSGELTGYAGSVKGRFTISRDGVENMVFLQMNSLVPEDTGVYYCAAVEGRDYYRGAQYYDYWGQGTQVTVSS
Which has the higher koff, 1 or 2 ? Pick one and reply with its label.
2
